- Test System: HIV-1 Env of UG037.8 (HIV-1)
- Run Description: cell-based or functional assay
Property Measured: neutralization IC50

{"Binder": "CAP256-VRC26.09 (antibody, V domains shown) VH: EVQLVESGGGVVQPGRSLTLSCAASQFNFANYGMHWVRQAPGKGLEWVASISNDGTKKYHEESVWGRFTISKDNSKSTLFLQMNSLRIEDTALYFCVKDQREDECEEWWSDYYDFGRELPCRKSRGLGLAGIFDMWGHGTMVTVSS VL: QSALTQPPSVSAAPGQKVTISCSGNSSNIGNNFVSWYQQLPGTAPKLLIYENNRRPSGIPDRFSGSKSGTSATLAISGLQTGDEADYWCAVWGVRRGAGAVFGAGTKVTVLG", "neutralization IC50": "> 50 µg/mL"}

// next item, neutralization IC50 requested
*Q* // query neutralization IC50 value for entry CAP256-VRC26.05 (antibody, V domains shown) VH: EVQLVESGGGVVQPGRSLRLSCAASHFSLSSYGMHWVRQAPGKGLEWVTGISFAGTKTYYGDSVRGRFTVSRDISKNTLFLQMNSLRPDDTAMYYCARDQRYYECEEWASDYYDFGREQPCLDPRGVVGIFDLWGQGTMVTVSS VL: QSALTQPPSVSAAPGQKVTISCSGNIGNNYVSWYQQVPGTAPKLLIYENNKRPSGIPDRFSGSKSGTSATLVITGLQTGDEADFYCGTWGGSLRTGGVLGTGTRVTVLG
*A* > 50 µg/mL

Hello, the source for this data is patent US20200199204A1, in case you need it.
